Parameter 'readout' = IC50; parameter 'system' = UniProt:O15530.
Sequence (O15530 whole entry, species assumed): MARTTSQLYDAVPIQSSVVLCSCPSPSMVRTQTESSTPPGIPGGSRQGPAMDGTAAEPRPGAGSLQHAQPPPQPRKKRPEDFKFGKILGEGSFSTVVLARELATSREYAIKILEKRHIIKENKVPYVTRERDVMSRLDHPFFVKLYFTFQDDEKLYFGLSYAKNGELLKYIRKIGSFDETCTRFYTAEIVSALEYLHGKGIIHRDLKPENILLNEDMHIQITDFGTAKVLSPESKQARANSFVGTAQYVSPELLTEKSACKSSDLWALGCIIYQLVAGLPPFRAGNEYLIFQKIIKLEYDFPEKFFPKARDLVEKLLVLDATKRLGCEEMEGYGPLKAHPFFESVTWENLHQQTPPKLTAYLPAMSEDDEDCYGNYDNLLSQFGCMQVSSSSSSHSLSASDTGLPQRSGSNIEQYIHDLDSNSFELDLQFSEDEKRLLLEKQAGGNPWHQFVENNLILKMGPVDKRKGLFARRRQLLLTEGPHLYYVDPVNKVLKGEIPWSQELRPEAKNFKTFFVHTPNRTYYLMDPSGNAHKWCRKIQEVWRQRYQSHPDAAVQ

Past entries and their recorded results:
molecule: Nc1ncsc1C#Cc1cnc2[nH]ccc2c1
assay endpoint: IC50
value measured: 1000 to 10000 nM
--
molecule: CC(C)(C)OC(=O)Nc1nc(-c2ccncc2)sc1C#CCN1CCOCC1
assay endpoint: IC50
value measured: > 1000 nM
--
molecule: Nc1ncsc1C#Cc1cccc(O)c1
assay endpoint: IC50
value measured: > 1000 nM
--
molecule: c1ccc(Cc2c[nH]c3ncsc23)cc1 [Compound A7, 6-benzyl-4H-pyrrolo[2,3-d]thiazole]
assay endpoint: IC50
value measured: > 1000 nM

Then there is this molecule:
Record CC(C)(C)OC(=O)Nc1ncsc1C#CCN1C(=O)c2ccccc2C1=O . Reported IC50: 1000 to 10000 nM
